# procedure-text: UHPLC-MS of LG components in the retina after LG gavage
# Assay type: in vivo, mouse
# condition-parameters: mouse, retina, po, 4.15 g LG/Kg of body weight; D2 mice, LG by gavage 1 ml of 83 mg LG/ml (4.15 g LG/Kg); read-out: T max in the retina
recorded-metric: Tmax (min)
# output: bare number, implied unit min

Entry O=c1c(O)c(-c2ccc(O)c(O)c2)oc2cc(O)cc(O)c12 — recorded Tmax = 30
